The values you see were collected from ChEMBL document CHEMBL5653626.

Test: Clearance in mouse liver microsomes
Type: ADME, Microsome
Reported log10 CLhep predicted is given for each of the following molecules.
Values below are the log10 of the recorded CLhep predicted, with mL/min/kg as the unit.

Known log10 CLhep predicted results, listed for orientation:
>  <moleculeSmiles>
Cc1c(NC(=O)c2cc(-c3ncnn3C)nc3ccccc23)c(C(F)(F)F)nn1Cc1ccc(C#N)cc1

>  <outcomeMeasure>
log10 CLhep predicted

>  <numericReadout>
1.54

$$$$
>  <moleculeSmiles>
Cc1c(NC(=O)c2cc(C(F)(F)F)nc3ccc(Br)cc23)c(C(F)(F)F)nn1Cc1ccc(F)cc1

>  <outcomeMeasure>
log10 CLhep predicted

>  <numericReadout>
1.56

$$$$
>  <moleculeSmiles>
Cc1nn(Cc2ccc(C#N)cc2)c(C)c1NC(=O)c1cc(C(N)=O)nc2cc(F)ccc12

>  <outcomeMeasure>
log10 CLhep predicted

>  <numericReadout>
1.05

$$$$

Read the next record carefully.
# input molecule: `Cc1c(NC(=O)c2cc(C(N)=O)nc3cc(F)ccc23)c(C(F)(F)F)nn1Cc1ccc(C#N)cn1` ; wanted: its log10 CLhep predicted
0.78

* * *

Assay: Stability in human hepatocytes assessed as maximum bioavailability
Format: ADME, Hepatocyte
Settings: read-out: Fmax
Reported Fh is given for each of the following compounds.
Answer with a number only, understood to be in %.

>  <moleculeSmiles>
Cc1c(NC(=O)c2cc(C(N)=O)nc3cc(F)ccc23)c(C(F)(F)F)nn1Cc1ccc(C#N)cn1

>  <Fh (%)>
98

$$$$

# input compound: `Cc1c(NC(=O)c2cc(C(N)=O)nc3cc(F)ccc23)c(C(F)(F)F)nn1Cc1ccc(C#N)cc1` ; wanted: its Fh
72

* * *

Target: Solute carrier family 2, facilitated glucose transporter member 4 (Homo sapiens)
Sequence (P14672 whole entry): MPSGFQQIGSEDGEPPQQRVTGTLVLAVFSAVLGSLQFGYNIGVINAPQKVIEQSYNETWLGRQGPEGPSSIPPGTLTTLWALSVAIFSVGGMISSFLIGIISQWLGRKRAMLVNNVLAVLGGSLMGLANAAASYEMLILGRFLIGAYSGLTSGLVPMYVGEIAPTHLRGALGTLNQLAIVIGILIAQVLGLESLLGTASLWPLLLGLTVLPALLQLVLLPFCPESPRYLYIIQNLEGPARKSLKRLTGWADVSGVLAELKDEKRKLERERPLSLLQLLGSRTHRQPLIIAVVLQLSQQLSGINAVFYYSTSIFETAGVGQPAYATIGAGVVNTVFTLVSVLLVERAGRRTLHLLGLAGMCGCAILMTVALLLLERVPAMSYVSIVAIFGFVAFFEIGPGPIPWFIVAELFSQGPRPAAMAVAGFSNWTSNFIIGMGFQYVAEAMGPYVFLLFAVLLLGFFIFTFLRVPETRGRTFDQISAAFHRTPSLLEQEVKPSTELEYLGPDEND
Assay: Inhibition of human GLUT4 expressed in CHO cells assessed as reduction in glucose uptake by measuring decrease in ATP production preincubated for 20 mins followed by glucose addition and measured after 15 mins in presence of oxidative phosphorylation inhibitor rotenone by CellTiter-Glo Luminescent Cell Viability Assay
outcomeMeasure: pIC50
Note on units: pIC50 is unitless, being -log10 of a concentration expressed in mol/L.

>  <compound>
Cc1c(NC(=O)c2cc(C(N)=O)nc3ccccc23)c(C(F)(F)F)nn1Cc1ccc(C#N)cc1

>  <studySystem>
Solute carrier family 2, facilitated glucose transporter member 4 (Homo sapiens)

>  <numericReadout>
6.77

$$$$
>  <compound>
Cc1c(NC(=O)c2cc(C(N)=O)nc3cccc(F)c23)c(C(F)(F)F)nn1Cc1ccc(C#N)cc1

>  <studySystem>
Solute carrier family 2, facilitated glucose transporter member 4 (Homo sapiens)

>  <numericReadout>
7.03

$$$$
>  <compound>
COc1ccc2nc(C(N)=O)cc(C(=O)Nc3c(C(F)(F)F)nn(Cc4ccc(C#N)cc4)c3C)c2c1

>  <studySystem>
Solute carrier family 2, facilitated glucose transporter member 4 (Homo sapiens)

>  <numericReadout>
7.89

$$$$
>  <compound>
Cc1c(NC(=O)c2cc(C(N)=O)nc3ccc(F)cc23)c(C(F)(F)F)nn1Cc1ccc(C#N)cc1

>  <studySystem>
Solute carrier family 2, facilitated glucose transporter member 4 (Homo sapiens)

>  <numericReadout>
7.36

$$$$
>  <compound>
Cc1c(NC(=O)c2cc(C(N)=O)nc3cnccc23)c(C(F)(F)F)nn1Cc1ccc(C#N)cc1

>  <studySystem>
Solute carrier family 2, facilitated glucose transporter member 4 (Homo sapiens)

>  <numericReadout>
7.21

$$$$

# input compound: Cc1c(NC(=O)c2cc(C(N)=O)nc3cc(F)ccc23)c(C(F)(F)F)nn1Cc1ccc(C#N)cc1 [BAY-876] ; wanted: its pIC50
6.54
